- Target or system: C5a anaphylatoxin chemotactic receptor 1 (Homo sapiens)
- Experimental details: Inhibition of [125I]C5a binding to C5a anaphylatoxin chemotactic receptor in PMNL intact cells; inactive
- Format: cell-based
Where a SMILES comes first, the peptide text is derived from it.
Quantity name: Ki

compound="CC[C@H](C)[C@H](NC(C)=O)C(=O)N[C@@H](CO)C(=O)N[C@@H](Cc1c[nH]cn1)C(=O)N[C@@H](CCCCN)C(=O)N[C@@H](CC(=O)O)C(=O)N[C@@H](CCSC)C(=O)N[C@@H](CCC(N)=O)C(=O)N[C@@H](CC(C)C)C(=O)N[C@@H](CCCN=C(N)N)C(=O)NCC(=O)N[C@@H](CCCN=C(N)N)C(=O)O (Ac-ISHKDMQLRGR-OH)" target_or_system="C5a anaphylatoxin chemotactic receptor 1 (Homo sapiens)" quantity_name=Ki assay_result="Not Active"
compound="CSCC[C@H](NC(=O)[C@H](CC(=O)O)NC(=O)[C@H](CCCCN)NC(=O)[C@@H](N)Cc1c[nH]cn1)C(=O)N[C@@H](CCC(N)=O)C(=O)N[C@@H](CC(C)C)C(=O)NCC(=O)N[C@@H](CCCN=C(N)N)C(=O)O (H-HKDMQLGR-OH)" target_or_system="C5a anaphylatoxin chemotactic receptor 1 (Homo sapiens)" quantity_name=Ki assay_result="Not Active"
compound="CC[C@H](C)[C@H](N)C(=O)N[C@@H](CO)C(=O)N[C@@H](Cc1c[nH]cn1)C(=O)N[C@@H](CCCCN)C(=O)N[C@@H](CC(=O)O)C(=O)N[C@@H](CCSC)C(=O)N[C@@H](CCC(N)=O)C(=O)N[C@@H](CC(C)C)C(=O)NCC(=O)N[C@@H](CCCN=C(N)N)C(=O)O [ISHKDMQLGR] (H-ISHKDMQLGR-OH)" target_or_system="C5a anaphylatoxin chemotactic receptor 1 (Homo sapiens)" quantity_name=Ki assay_result="Not Active"
compound="CSCC[C@H](NC(=O)[C@H](CC(=O)O)NC(C)=O)C(=O)N[C@@H](CCC(N)=O)C(=O)N[C@@H](CC(C)C)C(=O)NCC(=O)N[C@@H](CCCN=C(N)N)C(=O)O (Ac-DMQLGR-OH)" target_or_system="C5a anaphylatoxin chemotactic receptor 1 (Homo sapiens)" quantity_name=Ki assay_result="Not Active"

// each listed compound needs a value for Ki
1. CSCC[C@H](NC(=O)[C@H](CC(=O)O)NC(=O)[C@H](CCCCN)NC(=O)[C@H](Cc1c[nH]cn1)NC(C)=O)C(=O)N[C@@H](CCC(N)=O)C(=O)N[C@@H](CC(C)C)C(=O)NCC(=O)N[C@@H](CCCN=C(N)N)C(=O)O (Ac-HKDMQLGR-OH)
2. CSCC[C@H](NC(=O)[C@H](CC(=O)O)NC(=O)[C@H](CCCCN)NC(C)=O)C(=O)N[C@@H](CCC(N)=O)C(=O)N[C@@H](CC(C)C)C(=O)NCC(=O)N[C@@H](CCCN=C(N)N)C(=O)O (Ac-KDMQLGR-OH)

a:
1. Not Active
2. Not Active

====

- Target or system: C5a anaphylatoxin chemotactic receptor 1 (Homo sapiens, UniProt P21730)
- Sequence (P21730 whole entry): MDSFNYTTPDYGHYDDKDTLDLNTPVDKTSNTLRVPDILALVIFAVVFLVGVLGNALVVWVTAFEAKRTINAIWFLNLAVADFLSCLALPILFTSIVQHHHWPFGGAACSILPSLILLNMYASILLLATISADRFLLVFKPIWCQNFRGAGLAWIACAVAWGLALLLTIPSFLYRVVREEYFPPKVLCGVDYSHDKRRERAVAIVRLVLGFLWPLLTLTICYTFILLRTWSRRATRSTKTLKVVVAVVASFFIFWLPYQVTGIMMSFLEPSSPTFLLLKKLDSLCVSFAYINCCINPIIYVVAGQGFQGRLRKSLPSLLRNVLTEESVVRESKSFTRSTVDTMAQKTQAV
- Experimental details: Inhibition of [125I]C5a binding to anaphylatoxin chemotactic receptor of PMNL membranes
Where a SMILES comes first, the peptide text is derived from it. Bridges are numbered along the chain shown (N, C = ends). The star is where a group is joined. Acm = CC(=O)NC*
Quantity name: Ki

Please review the entries below; each comes with its answer.
compound="CC(=O)NCSC[C@H](NC(=O)[C@H](C)NC(=O)[C@H](CCCCN)NC(=O)[C@H](CCCCN)NC(=O)[C@@H](NC(=O)[C@@H](NC(=O)[C@@H](N)CO)C(C)C)C(C)C)C(=O)N[C@@H](Cc1ccc(O)cc1)C(=O)N[C@@H](CC(=O)O)C(=O)NCC(=O)N[C@@H](C)C(=O)O (H-SVVKKAC(Acm)YDGA-OH)" assay_result="Not Active"
compound="CC(C)[C@H](NC(=O)[C@H](CO)NC(=O)[C@H](Cc1c[nH]cn1)NC(=O)[C@@H](N)CCCCN)C(=O)N[C@H](C(=O)N[C@@H](CCCCN)C(=O)N[C@@H](CCCCN)C(=O)O)C(C)C (H-KHSVVKK-OH)" assay_result="Not Active"
compound="CC[C@H](C)[C@H](NC(=O)[C@H](CCCN=C(N)N)NC(=O)[C@H](C)NC(=O)[C@@H](N)CSCNC(C)=O)C(=O)N[C@@H](CO)C(=O)N[C@@H](CC(C)C)C(=O)NCC(=O)N1CCC[C@H]1C(=O)N[C@@H](CCCN=C(N)N)C(=O)N[C@@H](CCSC)C(=O)N[C@@H](CSCNC(C)=O)C(=O)N[C@@H](CCCCN)C(=O)O (H-C(Acm)ARISLGPRMC(Acm)K-OH)" assay_result="Not Active"
compound="CC(=O)N[C@@H](C)C(=O)N[C@@H](C)C(=O)N[C@@H](CCCCN)C(=O)N[C@@H](Cc1ccc(O)cc1)C(=O)N[C@@H](CCCCN)C(=O)N[C@@H](Cc1c[nH]cn1)C(=O)N[C@@H](CO)C(=O)N[C@H](C(=O)N[C@H](C(=O)N[C@@H](CCCCN)C(=O)N[C@@H](CCCCN)C(=O)O)C(C)C)C(C)C (Ac-AAKYKHSVVKK-OH)" assay_result="Not Active"
compound="CC[C@H](C)[C@H](NC(=O)[C@H](CCC(=O)O)NC(=O)[C@H](CCC(=O)O)NC(=O)[C@@H](NC(=O)[C@H](CCCCN)NC(=O)[C@H](CCCCN)NC(=O)[C@H](CCC(N)=O)NC(=O)[C@H](CC(C)C)NC(=O)[C@@H](N)[C@@H](C)O)[C@@H](C)CC)C(=O)N[C@@H](C)C(=O)N[C@@H](C)C(=O)N[C@@H](CCCCN)C(=O)N[C@@H](Cc1ccc(O)cc1)C(=O)N[C@@H](CCCCN)C(=O)O (H-TLQKKIEEIAAKYK-OH)" assay_result="Not Active"

// each listed compound needs a value for Ki
1. CC(C)[C@H](NC(=O)[C@H](C)NC(=O)[C@H](C)NC(=O)CNC(=O)[C@H](CC(=O)O)NC(=O)[C@H](Cc1ccc(O)cc1)NC(=O)[C@H](C)NC(=O)[C@H](C)NC(=O)[C@H](CCCCN)NC(=O)[C@H](CCCCN)NC(=O)[C@@H](NC(=O)[C@@H](NC(=O)[C@H](CO)NC(=O)[C@@H](N)Cc1c[nH]cn1)C(C)C)C(C)C)C(=O)N[C@@H](CC(N)=O)C(=O)N[C@@H](CC(N)=O)C(=O)N[C@@H](CC(=O)O)C(=O)N[C@@H](CCC(=O)O)C(=O)O (H-HSVVKKAAYDGAAVNNDE-OH)
2. CC[C@H](C)[C@H](NC(=O)[C@H](CCCNC(=N)N)NC(=O)[C@H](C)NC(=O)[C@H](C)NC(=O)[C@H](CCCNC(=N)N)NC(=O)[C@H](CCC(N)=O)NC(=O)[C@H](CCC(=O)O)NC(=O)[C@H](CSCNC(C)=O)NC(=O)[C@@H](NC(C)=O)[C@@H](C)O)C(=O)N[C@@H](CO)C(=O)N[C@@H](CC(C)C)C(=O)O (Ac-TC(Acm)EQRAARISL-OH)
3. CC(C)C[C@H](NC(=O)[C@H](CCC(N)=O)NC(=O)[C@H](CO)NC(=O)[C@H](C)NC(=O)[C@@H](NC(=O)[C@@H](NC(=O)[C@H](C)N)C(C)C)C(C)C)C(=O)N[C@@H](CCCN=C(N)N)C(=O)O (H-AVVASQLR-OH)
4. CC(C)[C@@H]1NC(=O)[C@H](CO)NC(=O)[C@H](Cc2c[nH]cn2)NC(=O)[C@H](CCCCN)NC(=O)[C@H](Cc2ccc(O)cc2)NC(=O)[C@H](CCCCN)NC(=O)[C@H](C)NC(=O)[C@@H](N)CSSC[C@@H](C(=O)O)NC(=O)[C@H](C(C)C)NC1=O (H-CAKYKHSVVC-OH; disulfide 1-10)

a:
Not Active
Not Active
Not Active
Not Active

Cited source for all entries: ChEMBL document CHEMBL1125281
